- Tested on: TO-3-N3 (biotin conjugate)
- procedureText: pull-down binding Z-score (relative to library population); higher = stronger binding
- runParameters: RNA library: Library-2
Consider the following sequences; for each one, report its pull-down binding Z-score.

**Query** For the sequence GGUGUGGAUGGCAUGCC [IAV_invivo_NP_5_Motif_17+IAV_invivo_NP_5_Motif_17] , give its measured pull-down binding Z-score value.
**Result** -0.0853

**Query** For the sequence UGCUUUCGUGGUA , give its measured pull-down binding Z-score value.
**Result** 0.137

**Query** For the sequence GAGUGGUCGGGUCGACUGAACC [hsa-mir-4726] , give its measured pull-down binding Z-score value.
**Result** 0.829

**Query** For the sequence UAGUUUUAAGGAAUUA , give its measured pull-down binding Z-score value.
**Result** -0.826

**Query** For the sequence AGAUAUAUAUAUACCUCAUAUGUAUAUGGUAUAC [hsa-mir-4777] , give its measured pull-down binding Z-score value.
**Result** -1.2

**Query** For the sequence CCCCGGCCCCGGCCCCGGCCCCGG [r(CCCCGG)4] , give its measured pull-down binding Z-score value.
**Result** 0.661

**Query** For the sequence GCUAGUGGGGGACAACCAAUCACUAAUUGUGUUAAGAUGUUGUGUACACACACUGGU , give its measured pull-down binding Z-score value.
**Result** 0.789

**Query** For the sequence GCCAGCACAUGGUCCAGCCAAAAACAUGGAGUAUGAUGCUGUUGC [IAV_invivo_PB1_2_Motif_34+IAV_invivo_PB1_2_Motif_34] , give its measured pull-down binding Z-score value.
**Result** -0.602

**Query** For the sequence UGGCCCCGAUUUCAGCUAUGGUUA [SHAPE_invitro_SARS-CoV-2_Motif_146] , give its measured pull-down binding Z-score value.
**Result** -0.129

**Query** For the sequence GUCCUGACUGCGUGCCAGGGGC [hsa-mir-3650] , give its measured pull-down binding Z-score value.
**Result** -0.235

----------
Consider the following sequences; for each one, report its pull-down binding Z-score.
- Tested on: TO-N3 (biotin conjugate)
- procedureText: pull-down binding Z-score (relative to library population); higher = stronger binding
- runParameters: RNA library: Library-2
I only need the number, thanks.

**Query** For the sequence CACAUCAGUAGUCUUACUCUCAGUUUUGCAACAACUCAGAGUAGAAUCAUCAUCUAAAUUGUG [DMSMaPseq_invitro_SARS-CoV-2_Motif_209] , give its measured pull-down binding Z-score value.
**Result** -0.843

**Query** For the sequence GCCGGAGCGGGC [hsa-mir-1181] , give its measured pull-down binding Z-score value.
**Result** 0.703

**Query** For the sequence GCAACUUGCUGUUGUUGUUUGUAACAGUUUACUCACACCUUUUGCUCGUUGC , give its measured pull-down binding Z-score value.
**Result** -1.09

**Query** For the sequence AGUUCGCUUUUAUUAAUGACGAAUA [hsa-mir-410] , give its measured pull-down binding Z-score value.
**Result** -0.628

**Query** For the sequence CACCAUCUGGUG [DMSMaPseq_invitro_SARS-CoV-2_Motif_188] , give its measured pull-down binding Z-score value.
**Result** 0.0701

**Query** For the sequence CACAUCUAGGUUUCGUCCGGGUGUG [SARS-CoV-2-Conserved-Structured-16_Interval-158-277_Motif_2] , give its measured pull-down binding Z-score value.
**Result** 0.254

**Query** For the sequence ACUUAAGCACCAGGUAAAAUCUGGUGCUUAAGU [hsa-mir-4720] , give its measured pull-down binding Z-score value.
**Result** -1.56

**Query** For the sequence GUGCUAAUGACCCUGUGGGUUUUACAC [SHAPE_invivo_SARS-CoV-2_Motif_252] , give its measured pull-down binding Z-score value.
**Result** 0.0247

**Query** For the sequence AUGGCAUUUAAGGAUUGCUAU [hsa-mir-4477a] , give its measured pull-down binding Z-score value.
**Result** -0.893

**Query** For the sequence CAUUUGUAGUUUCAACUGGAUACCACUUCAGAGAGCUAGGUGUUGUACAUAAUCAGGAUGUAAACUUACAUAGCUCUAGACUUAGUUUUAAGGAAUUACUUGUG , give its measured pull-down binding Z-score value.
**Result** -0.109

**Query** For the sequence GCGCUGCCAGAAACUGGCAAAAGCGC [bulge-AAA] , give its measured pull-down binding Z-score value.
**Result** -0.936

**Query** For the sequence GAUGGUCAAGUAGACUUAUUUAGAAAUGCCCGUAAUGGUGUUCUUAUUACAGAAGGUAGUGUUAAAGGUUUACAACCAUC , give its measured pull-down binding Z-score value.
**Result** -0.421

**Query** For the sequence CUGCAGGAAAGGGAAGACCAAGGCUUGCUGUCUGUCCAGUCUGCCACCCUACCCUGU [hsa-mir-1231] , give its measured pull-down binding Z-score value.
**Result** 0.788

**Query** For the sequence CAUGCUGAUUUUGACACAUGGUUUAGCCAGCGUG [DMSMaPseq_invitro_SARS-CoV-2_Motif_160] , give its measured pull-down binding Z-score value.
**Result** -0.64

**Query** For the sequence GGCCUUGAAGCC [SHAPE_invitro_SARS-CoV-2_Motif_466] , give its measured pull-down binding Z-score value.
**Result** -0.703

**Query** For the sequence UGAGCUGUGAUGUUGCUCUCGAGCUGG [hsa-mir-769] , give its measured pull-down binding Z-score value.
**Result** 1.02

**Query** For the sequence GCGCGGCCAGAAACUGGCGGCGC [mismatch-GG] , give its measured pull-down binding Z-score value.
**Result** -0.309

**Query** For the sequence UGGCAAUUCAGUAAAAAUGCUCA [hsa-mir-6715b] , give its measured pull-down binding Z-score value.
**Result** -0.281

**Query** For the sequence GCGCUGCCAGAAACUGGCAAGCGC [bulge-A] , give its measured pull-down binding Z-score value.
**Result** -0.493

----------
- System: G-clamp-N3 (biotin conjugate)
- procedureText: pull-down binding Z-score (relative to library population); higher = stronger binding
- runParameters: RNA library: Library-1 (pre-miRNA loops + repeats)
metricName: pull-down binding Z-score
I only need the number, thanks.

**Query** For the sequence GCUCAAGCCACAGCAGGGUGUUUAGCGCUCUUCAGUGGCUCCAG [hsa-mir-1203] , give its measured pull-down binding Z-score value.
**Result** -1.23

**Query** For the sequence UUGUGAAACACAGGUGUUUUUUAACCUCAC [hsa-mir-6841] , give its measured pull-down binding Z-score value.
**Result** -0.237

**Query** For the sequence CAGUACUGGUCUUAGACUG [hsa-mir-554] , give its measured pull-down binding Z-score value.
**Result** 0.887

**Query** For the sequence AUUUUCACUUAAU [hsa-mir-302f] , give its measured pull-down binding Z-score value.
**Result** 0.103

**Query** For the sequence UUUUCAUGACAACCCUAUAUGGGAAAAUGUUGUGAAAA [hsa-mir-3646] , give its measured pull-down binding Z-score value.
**Result** -0.346

**Query** For the sequence GCCUCGCUUCCUGCCGGCGCGGC [hsa-mir-1538] , give its measured pull-down binding Z-score value.
**Result** -0.287

**Query** For the sequence UGGAGGUGAUGGAUGUUUUCCUCCG [hsa-mir-671] , give its measured pull-down binding Z-score value.
**Result** -0.238

**Query** For the sequence GACACCUGGAUUCAGAGAACAUGUC [hsa-mir-1276] , give its measured pull-down binding Z-score value.
**Result** -0.716

**Query** For the sequence CAGCCUGUUGUCAAGGCUG [hsa-mir-3130-1] , give its measured pull-down binding Z-score value.
**Result** -0.13

**Query** For the sequence GUCUUGGGGUGGGGGAUCAAGAC [hsa-mir-642a] , give its measured pull-down binding Z-score value.
**Result** 0.431

**Query** For the sequence UGUUCACGUGGAGAGGAGUUAAACA [hsa-mir-499b] , give its measured pull-down binding Z-score value.
**Result** 0.339

----------
- System: TO-N3 (biotin conjugate)
- procedureText: pull-down binding Z-score (relative to library population); higher = stronger binding
- runParameters: RNA library: Library-2
Each entry gets Not met if its pull-down binding Z-score stays under -0.2, and Met if its pull-down binding Z-score is -0.2 or above.

**Query** Given the entry GCACCUCAUGGUGU , answer whether its pull-down binding Z-score meets or surpasses -0.2.
**Result** Met

**Query** Given the entry AUCUGAAUUCUUCUAGAGUUCCUGAU , answer whether its pull-down binding Z-score meets or surpasses -0.2.
**Result** Met

**Query** Given the entry CACACACAAUCACCAUGUG [hsa-mir-3118-1] , answer whether its pull-down binding Z-score meets or surpasses -0.2.
**Result** Not met

**Query** Given the entry CUGUCCCCUGCCACUGGGUGACC [hsa-mir-7114] , answer whether its pull-down binding Z-score meets or surpasses -0.2.
**Result** Met

**Query** Given the entry UUUCUGUUGUCUAAAAGAAGAGAAA [hsa-mir-518a-2] , answer whether its pull-down binding Z-score meets or surpasses -0.2.
**Result** Met

**Query** Given the entry GUACUUAAUGAGAAGUGC [SHAPE_invivo_SARS-CoV-2_Motif_56] , answer whether its pull-down binding Z-score meets or surpasses -0.2.
**Result** Not met

**Query** Given the entry UCCUCUCCUGGUCUGGGAGGAUAGAAGAGAGGA [hsa-mir-5191] , answer whether its pull-down binding Z-score meets or surpasses -0.2.
**Result** Met

**Query** Given the entry GUACGAUCGAGUGUAC [DMSMaPseq_invitro_SARS-CoV-2_Motif_538] , answer whether its pull-down binding Z-score meets or surpasses -0.2.
**Result** Met

**Query** Given the entry GGGGCUCUU [hsa-mir-4634] , answer whether its pull-down binding Z-score meets or surpasses -0.2.
**Result** Met

**Query** Given the entry ACUAAAAAUGU [SHAPE_invitro_SARS-CoV-2_Motif_381] , answer whether its pull-down binding Z-score meets or surpasses -0.2.
**Result** Met

**Query** Given the entry CAGCAAGAACUG [DMSMaPseq_invitro_SARS-CoV-2_Motif_202] , answer whether its pull-down binding Z-score meets or surpasses -0.2.
**Result** Not met
